All figures here come from ChEMBL document CHEMBL3286372.

Experiment: Growth inhibition of human HCC2998 cells after 48 hrs by coulter counting analysis
Type: functional
Settings: HCC 2998, 48 h
// NB: equality with 3000 nM counts as class 0; only GI50 strictly below is class 1

Examples from the recorded data:
>>> print(df.to_string())
                           molecular_string    group
0  COc1c2occc2c(OC)c2c(=O)c(CN3CCOCC3)c(/C=C/c3ccc(N(C)C)cc3)oc12  class 1
1    COc1c(C(=O)/C=C/c2ccccc2)c(O)cc2occc12  class 0
2  C=CCc1c(O)c(C(=O)/C=C/c2ccccc2)c(OC)c2ccoc12  class 1
3  C=CCc1c2c(c(OC)c3ccoc13)C(=O)/C(=C/c1ccccc1OC)O2  class 1
4  COc1ccc(-c2cc(=O)c3c(OC)c4ccoc4c(/C=C/C=O)c3o2)cc1  class 0
5  COc1c(C(=O)/C=C/c2ccc(Cl)cc2)c(O)c(Br)c2occc12  class 1
6  COc1c2ccoc2c(/C=C/C=O)c2oc(-c3ccccc3)cc(=O)c12  class 0
7    COc1ccccc1/C=C/C(=O)c1c(O)cc2occc2c1OC  class 0

Lab log: compare recorded GI50 with 3000 nM; is it strictly lower for C=CCc1c(O)c(C(=O)/C=C/c2ccc(Cl)cc2)c(OC)c2ccoc12 ?
class 1

Lab note: confirm whether the reported GI50 for this compound is below 3000 nM, equality not counting. compound: COc1c2occc2c(OC)c2c(=O)c(CN3CCOCC3)c(/C=C/c3ccc(Cl)cc3)oc12
class 1
